Hey, just so you know, these numbers are from patent US20250195521A1.

# targetUnderTest: KRAS G13D (Homo sapiens (Human), UniProt P01116+P62937, G13D)
# Sequence (P01116 other isoform, or with tags, fused parts or gaps G13D): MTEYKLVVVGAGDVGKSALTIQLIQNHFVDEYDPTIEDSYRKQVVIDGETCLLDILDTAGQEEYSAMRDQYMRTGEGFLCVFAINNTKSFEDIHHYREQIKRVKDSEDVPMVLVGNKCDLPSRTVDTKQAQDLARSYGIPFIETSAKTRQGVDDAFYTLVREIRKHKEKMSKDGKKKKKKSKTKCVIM
# Sequence (P62937 whole entry): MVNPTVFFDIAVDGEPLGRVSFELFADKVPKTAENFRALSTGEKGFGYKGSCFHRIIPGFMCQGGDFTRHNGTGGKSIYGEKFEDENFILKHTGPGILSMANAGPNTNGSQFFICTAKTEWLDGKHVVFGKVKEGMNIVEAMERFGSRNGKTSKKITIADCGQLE
# assayRemarks: Ras-Raf disruption/FRET/MOA assay, KRAS G13D
# Assay type: biochemical
# experimentalConditions: read-out: KRAS G13D FRET IC50
pIC50: −log10 of the molar value.
recordedEndpoint: pIC50

compound="CCn1c(-c2cnccc2COC)c2c3cc(ccc31)-c1cc(O)cc(c1)C[C@H](NC(=O)[C@H](C(C)C)N(C)C(=O)[C@H]1CCN(C(=O)[C@@H]3CN3)C1)C(=O)N1CCC[C@H](N1)C(=O)OCC(C)(C)C2 [Example 2]" assayvalue="6.00 to 7.00"
compound="CCn1c(-c2cnccc2COC)c2c3cc(ccc31)-c1cccc(c1)C[C@H](NC(=O)[C@H](C(C)C)N(C)C(=O)CCN=C=Nc1ccccc1COC)C(=O)N1CCC[C@H](N1)C(=O)OCC(C)(C)C2 [Example 63]" assayvalue="< 5.00"
compound="CCn1c(-c2cccnc2COC)c2c3cc(ccc31)-c1cc(O)cc(c1)C[C@H](NC(=O)[C@H](C(C)C)N(C)C(=O)CCNC1=NCCO1)C(=O)N1CCC[C@H](N1)C(=O)OCC(C)(C)C2 [Example 27]" assayvalue="5.00 to 6.00"

----------
# targetUnderTest: KRAS G12D (Homo sapiens (Human), UniProt P01116+P62937, G12D)
# Sequence (P01116 other isoform, or with tags, fused parts or gaps G12D, one chain of several): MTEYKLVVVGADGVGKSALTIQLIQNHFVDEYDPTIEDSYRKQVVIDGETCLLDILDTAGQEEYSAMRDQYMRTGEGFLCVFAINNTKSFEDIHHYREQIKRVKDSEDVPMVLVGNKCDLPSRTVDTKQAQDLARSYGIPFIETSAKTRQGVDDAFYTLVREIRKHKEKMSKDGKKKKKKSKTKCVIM
# assayRemarks: Ras-Raf disruption/FRET/MOA assay (BRAF RBD, Cyclophilin A)
# Assay type: biochemical
# experimentalConditions: read-out: KRAS G12D FRET IC50
Below, each entry is listed with its recorded IC50.
recordedEndpoint: IC50

compound="CCOC1c2nc(cs2)-c2ccc3c(c2)c(c(-c2cc(C4CC5COCC(C4)N5C4CC4)cnc2C(C)OC)n3CC)CC(C)(C)COC(=O)C2CCCN(N2)C(=O)C1NC(=O)C1C(C)C1C (stereo not drawn) [Compound A483]" recordedendpoint=IC50 assayvalue="10 to 100 nM"
compound="CCn1c(-c2cccnc2[C@H](C)OC)c2c3cc(ccc31)-c1csc(n1)C[C@H](NC(=O)[C@H](C(C)C)N(C)C(=O)N1CC[C@H]1CN)C(=O)N1CCC[C@H](N1)C(=O)OCC(C)(C)C2 [Compound A463]" recordedendpoint=IC50 assayvalue="100 to 1000 nM"
compound="CCn1c(-c2cccnc2[C@H](C)OC)c2c3cc(ccc31)-c1cc(O)cc(c1)C[C@H](NC(=O)[C@H](C(C)C)N(C)C(=O)C1(C(F)F)CCCO1)C(=O)N1CCC[C@H](N1)C(=O)OCC(C)(C)C2 (stereo partly drawn) [Compound A416]" recordedendpoint=IC50 assayvalue="100 to 1000 nM"
compound="CCn1c(-c2cccnc2[C@H](C)OC)c2c3cc(ccc31)-c1csc(n1)C[C@H](NC(=O)[C@H](C(C)C)N(C)C(=O)N1CC(S(C)(=O)=O)C1)C(=O)N1CCC[C@H](N1)C(=O)OCC(C)(C)C2 [Compound A383]" recordedendpoint=IC50 assayvalue="100 to 1000 nM"
compound="CCn1c(-c2cccnc2[C@H](C)OC)c2c3cc(ccc31)-c1csc(n1)C[C@H](NC(=O)[C@H](C(C)C)N(C)C(=O)N1CC(OC)C1)C(=O)N1CCC[C@H](N1)C(=O)OCC(C)(C)C2 [Compound A354]" recordedendpoint=IC50 assayvalue="1000 to 10000 nM"
compound="CCn1c(-c2cccnc2[C@H](C)OC)c2c3cc(ccc31)-c1cc(O)cc(c1)C[C@H](NC(=O)[C@@H](C(C)C)N(C)C(C)=O)C(=O)N1CCC[C@H](N1)C(=O)OCC(C)(C)C2 [Compound A256]" recordedendpoint=IC50 assayvalue="> 10000 nM"
compound="CCn1c(-c2cccnc2[C@H](C)OC)c2c3cc(ccc31)-c1cc(O)cc(c1)C[C@H](NC(=O)[C@H](C(C)C)N(C)C(=O)C1(F)CC1)C(=O)N1CCC[C@H](N1)C(=O)OCC(C)(C)C2 [Compound A165]" recordedendpoint=IC50 assayvalue="100 to 1000 nM"
compound="CCn1c(-c2cccnc2[C@H](C)OC)c2c3cc(ccc31)-c1cc(O)cc(c1)C[C@H](NC(=O)[C@H](C(C)C)N(C)C(=O)[C@H]1CCN(C(=O)[C@H]3CCCN3C)C1)C(=O)N1CCC[C@H](N1)C(=O)OCC(C)(C)C2 [Compound A371]" recordedendpoint=IC50 assayvalue="10 to 100 nM"
compound="CCn1c(-c2cccnc2[C@H](C)OC)c2c3cc(ccc31)-c1csc(n1)C[C@H](NC(=O)[C@H](C(C)C)N(C)C(=O)N1CC3(CN(C)C3)C1)C(=O)N1CCC[C@H](N1)C(=O)OCC(C)(C)C2 [Compound A268]" recordedendpoint=IC50 assayvalue="100 to 1000 nM"

----------
# targetUnderTest: NRAS G12C (Homo sapiens (Human), UniProt P01111+P62937, G12C)
# Sequence (P01111 whole entry G12C): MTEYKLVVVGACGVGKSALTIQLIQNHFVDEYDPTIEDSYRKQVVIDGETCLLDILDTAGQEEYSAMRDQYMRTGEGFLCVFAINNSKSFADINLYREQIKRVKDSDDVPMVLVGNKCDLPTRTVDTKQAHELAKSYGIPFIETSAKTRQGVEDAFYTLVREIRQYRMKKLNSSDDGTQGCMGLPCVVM
# Sequence (P62937 whole entry): as the sequence (P62937 whole entry) above
# assayRemarks: Ras-Raf disruption/FRET/MOA assay (BRAF RBD, Cyclophilin A)
# Type: biochemical
# experimentalConditions: read-out: NRAS G12C FRET data IC50
recordedEndpoint: IC50

compound="CCn1c(-c2cccnc2[C@H](C)OC)c2c3cc(ccc31)-c1csc(n1)C[C@H](NC(=O)[C@H](C(C)C)N1C[C@@H](c3ccccc3)CC1=O)C(=O)N1CCC[C@H](N1)C(=O)OCC(C)(C)C2 (single isomer, unassigned) [Compound A544]" assayvalue="0.1 to 1 µM"
compound="CO[C@@H](C)c1ncccc1-c1c2c3cc(ccc3n1C)-c1cc(O)cc(c1)C[C@H](NC(=O)[C@H](C(C)C)N(C)C(C)=O)C(=O)N1CCC[C@H](N1)C(=O)OCC(C)(C)C2 [Compound A104]" assayvalue="> 10 µM"
compound="CCn1c(-c2cccnc2[C@H](C)OC)c2c3cc(ccc31)-c1csc(n1)C[C@H](NC(=O)[C@H](C(C)C)N(C)C(=O)N1CC(O)(COC)C1)C(=O)N1CCC[C@H](N1)C(=O)OCC(C)(C)C2 [Compound A553]" assayvalue="0.1 to 1 µM"
compound="CCn1c(-c2cccnc2[C@H](C)OC)c2c3cc(ccc31)-c1cc(O)cc(c1)C[C@H](NC(=O)[C@H](C(C)C)N(C)C(=O)[C@H]1OCC[C@H]1c1ccccc1)C(=O)N1CCC[C@H](N1)C(=O)OCC(C)(C)C2 [Compound A425]" assayvalue="1 to 10 µM"

----------
# targetUnderTest: KRAS G12S (Homo sapiens (Human), UniProt P01116+P62937, G12S)
# Sequence (P01116 other isoform, or with tags, fused parts or gaps G12S, one chain of several): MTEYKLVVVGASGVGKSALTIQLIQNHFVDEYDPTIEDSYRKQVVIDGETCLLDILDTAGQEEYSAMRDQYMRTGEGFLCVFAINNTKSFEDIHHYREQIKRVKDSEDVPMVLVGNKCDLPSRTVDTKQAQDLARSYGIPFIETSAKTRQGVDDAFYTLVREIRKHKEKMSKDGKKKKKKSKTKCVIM
# assayRemarks: Ras-Raf disruption/FRET/MOA assay (BRAF RBD, Cyclophilin A)
# Format: biochemical
# experimentalConditions: read-out: KRAS G12S FRET IC50
pIC50: −log10 of the molar value.
recordedEndpoint: pIC50

compound=CCn1c(-c2cccnc2[C@H](C)OC)c2c3cc(ccc31)-c1cc(O)cc(c1)C[C@H](NC(=O)[C@H](C(C)C)N(C)C(=O)[C@@H]1C[C@@H]1C)C(=O)N1CCC[C@H](N1)C(=O)OCC(C)(C)C2 targetundertest="KRAS G12S (Homo sapiens (Human), UniProt P01116+P62937, G12S)" assayvalue="7.00 to 8.00"
compound="CCn1c(-c2cccnc2[C@H](C)OC)c2c3cc(ccc31)-c1cc(O)cc(c1)C[C@H](NC(=O)[C@H](C(C)C)N(C)C(=O)C1(C(F)F)CCCO1)C(=O)N1CCC[C@H](N1)C(=O)OCC(C)(C)C2 (stereo partly drawn)" targetundertest="KRAS G12S (Homo sapiens (Human), UniProt P01116+P62937, G12S)" assayvalue="6.00 to 7.00"
compound=CCn1c(-c2cccnc2[C@H](C)OC)c2c3cc(ccc31)-c1csc(n1)C[C@H](NC(=O)[C@H](C(C)C)N(C)C(=O)N1CC3(CC(N(C)C4COC4)C3)C1)C(=O)N1CCC[C@H](N1)C(=O)OCC(C)(C)C2 targetundertest="KRAS G12S (Homo sapiens (Human), UniProt P01116+P62937, G12S)" assayvalue="6.00 to 7.00"
compound="CCn1c(-c2cccnc2[C@H](C)OC)c2c3cc(ccc31)-c1cc(O)cc(c1)C[C@H](NC(=O)[C@H](C(C)C)N(C)C(=O)C1CCc3ncccc3C1)C(=O)N1CCC[C@H](N1)C(=O)OCC(C)(C)C2 (stereo partly drawn)" targetundertest="KRAS G12S (Homo sapiens (Human), UniProt P01116+P62937, G12S)" assayvalue="7.00 to 8.00"
compound=CCn1c(-c2cnccc2COC)c2c3cc(ccc31)-c1cc(O)cc(c1)C[C@H](NC(=O)[C@H](C(C)C)N(C)C(=O)[C@H]1CCN(C(=O)C(C)(C)N)C1)C(=O)N1CCC[C@H](N1)C(=O)OCC(C)(C)C2 targetundertest="KRAS G12S (Homo sapiens (Human), UniProt P01116+P62937, G12S)" assayvalue="6.00 to 7.00"
compound=CCn1c(-c2cccnc2[C@H](C)OC)c2c3cc(ccc31)-c1csc(n1)C[C@H](NC(=O)[C@H](C(C)C)N(C)C(=O)N1CCO[C@@]3(CCN(C)C3)C1)C(=O)N1CCC[C@H](N1)C(=O)OCC(C)(C)C2 targetundertest="KRAS G12S (Homo sapiens (Human), UniProt P01116+P62937, G12S)" assayvalue="6.00 to 7.00"
compound=CCn1c(-c2cc(N3CCN(C)CC3)cnc2[C@H](C)OC)c2c3cc(ccc31)-c1csc(n1)C[C@H](NC(=O)[C@H](C(C)C)N(C)C(=O)N1CC(OC)C1)C(=O)N1CCC[C@H](N1)C(=O)OCC(C)(C)C2 targetundertest="KRAS G12S (Homo sapiens (Human), UniProt P01116+P62937, G12S)" assayvalue="6.00 to 7.00"
compound=CCn1c(-c2cccnc2[C@H](C)OC)c2c3cc(ccc31)-c1cc(O)cc(c1)C[C@H](NC(=O)[C@@H]1[C@H]3C[C@H]3CN1C(C)=O)C(=O)N1CCC[C@H](N1)C(=O)OCC(C)(C)C2 targetundertest="KRAS G12S (Homo sapiens (Human), UniProt P01116+P62937, G12S)" assayvalue="5.00 to 6.00"
compound=CCn1c(-c2cccnc2[C@H](C)OC)c2c3cc(ccc31)-c1csc(n1)C[C@H](NC(=O)[C@H](C(C)C)N(C)C(=O)N1CCCCC1)C(=O)N1CCC[C@H](N1)C(=O)OCC(C)(C)C2 targetundertest="KRAS G12S (Homo sapiens (Human), UniProt P01116+P62937, G12S)" assayvalue="7.00 to 8.00"
